- Test protocol: Tolerability in CD1 mice: liver function, ALT, AST, bilirubin, albumin (Example 33)
- Conditions: plasma, 50 mg/kg s.c. twice a week, 2 weeks
As shown below, each of these substances has a reported Bilirubin value.

Substance	Unit text	Bilirubin
ISIS 416864: MOE gapmer, nucleobases 1275 to 1318 of SEQ ID NO: 1 (Table 8) (antisense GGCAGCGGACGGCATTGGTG; MOE gapmer, wing and gap sizes not given here)	mg/dL	0.40
ISIS 416850: MOE gapmer, nucleobases 1275 to 1318 of SEQ ID NO: 1 (Table 8) (antisense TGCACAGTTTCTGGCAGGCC; MOE gapmer, wing and gap sizes not given here)	mg/dL	0.46

###

Catalogue of PT ratio (INR) readings, one per entry.
- Test system: blood coagulation
- Test protocol: PT and aPTT assay in cynomolgus monkeys (Example 46)
- Format: in vivo
- Conditions: Day 52; platelet poor plasma; relative to PBS group
- Experimental: Groups, each consisting of two male and two female monkeys, were injected subcutaneously with 25 mg/kg of ISIS 416850, ISIS 449709, ISIS 445522, ISIS 449710, ISIS 449707, ISIS 449711, ISIS 449708, 416858, and ISIS 445531. […] Body weights were taken 14 days and 7 days before the start of treatment and were then measured weekly throughout the treatment period. […] PT and aPTT were measured using platelet poor plasma (PPP) from […] treated with ISIS oligonucleotides. […]
Strand notation (5' to 3'): a small letter for the sugar, then the base; units joined by * are phosphorothioate-linked, units joined directly phosphodiester-linked; [ ] holds rarer units or linkages, { } end groups; capitals alone tell only the bases. e = 2'-O-(2-methoxyethyl) (MOE); [5mC] = 5-methylcytosine; d = 2'-deoxy (DNA)

Substance	PT ratio (INR)
ISIS 445531: 5-8-5 or 6-8-6 MOE microwalk gapmer (Table 44) (antisense eG*eG*e[5mC]*eA*eT*dT*dG*dG*dT*dG*d[5mC]*dA*d[5mC]*eA*eG*eT*eT*eT)	1.04
ISIS 445522: 5-8-5 or 6-8-6 MOE microwalk gapmer (Table 44) (antisense eG*e[5mC]*eA*e[5mC]*eA*dG*dT*dT*dT*d[5mC]*dT*dG*dG*e[5mC]*eA*eG*eG*e[5mC])	0.98
ISIS 449709: 3-8-3, 4-8-4, 2-10-2, 3-10-3 or 4-10-4 MOE microwalk gapmer (Table 46) (antisense eG*e[5mC]*eA*e[5mC]*dA*dG*dT*dT*dT*d[5mC]*dT*dG*dG*d[5mC]*eA*eG*eG*e[5mC])	0.99
ISIS 416858: MOE gapmer, nucleobases 1275 to 1318 of SEQ ID NO: 1 (Table 8) (antisense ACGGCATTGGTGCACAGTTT; MOE gapmer, wing and gap sizes not given here)	0.99
ISIS 416850: MOE gapmer, nucleobases 1275 to 1318 of SEQ ID NO: 1 (Table 8) (antisense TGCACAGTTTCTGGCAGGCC; MOE gapmer, wing and gap sizes not given here)	1.02
ISIS 449708: 3-8-3, 4-8-4, 2-10-2, 3-10-3 or 4-10-4 MOE microwalk gapmer (Table 46) (antisense eA*e[5mC]*eA*dG*dT*dT*dT*d[5mC]*dT*dG*dG*e[5mC]*eA*eG)	0.99
ISIS 449710: 3-8-3, 4-8-4, 2-10-2, 3-10-3 or 4-10-4 MOE microwalk gapmer (Table 46) (antisense e[5mC]*eA*e[5mC]*dA*dG*dT*dT*dT*d[5mC]*dT*dG*dG*d[5mC]*eA*eG*eG)	0.98
ISIS 449711: 3-8-3, 4-8-4, 2-10-2, 3-10-3 or 4-10-4 MOE microwalk gapmer (Table 46) (antisense eA*e[5mC]*dA*dG*dT*dT*dT*d[5mC]*dT*dG*dG*d[5mC]*eA*eG)	1.00
ISIS 449707: 3-8-3, 4-8-4, 2-10-2, 3-10-3 or 4-10-4 MOE microwalk gapmer (Table 46) (antisense e[5mC]*eA*e[5mC]*eA*dG*dT*dT*dT*d[5mC]*dT*dG*dG*e[5mC]*eA*eG*eG)	0.96
